Catalogue of molecules with associated EC50
test system: HIV-1 integrase Y143R/Q148H pseudovirus; assay: Pseudovirus-based assay of anti-HIV-1 activity, Y143R/Q148H strain; format: cell-based; settings: HEK-293T, 72 h
parameter: EC50 (nM)

• O=C(NCc1ccc(F)cc1F)c1cn2c(c(O)c1=O)C(=O)N1[C@@H](C3CC3)CO[C@@H]1C2 = 21.3
• O=C(NCc1ccc(F)cc1F)c1cn2c(c(O)c1=O)C(=O)N1[C@@H](CF)CO[C@@H]1C2 = 3.1
• C[C@H]1CO[C@@H]2Cn3cc(C(=O)NCc4ccc(F)cc4F)c(=O)c(O)c3C(=O)N12 = 4.2

====

Catalogue of molecules with associated EC50
system: HIV-1 integrase R263K pseudovirus; test: Pseudovirus-based assay of anti-HIV-1 activity, R263K strain; format: cell-based; settings: HEK-293T, 72 h
parameter: EC50

* Cc1nnc(C(=O)NC(C)(C)c2nc(C(=O)NCc3ccc(F)cc3)c(O)c(=O)n2C)o1 [Raltegravir, raltegravir] | 7.1 nM
* C[C@H]1CO[C@@H]2Cn3cc(C(=O)NCc4ccc(F)cc4F)c(=O)c(O)c3C(=O)N12 [Cabotegravir, cabotegravir] | 4.9 nM
* O=C(NCc1ccc(F)cc1F)c1cn2c(c(O)c1=O)C(=O)N1[C@@H](C3CC3)CO[C@@H]1C2 [Compound 1] | 6.5 nM
* O=C(NCc1ccc(F)cc1F)c1cn2c(c(O)c1=O)C(=O)N1[C@@H](CF)CO[C@@H]1C2 [Compound 2] | 2.9 nM

====

Catalogue of compounds with associated CC50 at 6 days
assay: Test of cytotoxicity of the compound (MT-4 cells, XTT); format: cell-based; conditions: human
parameter: CC50 at 6 days

• C[C@H]1CO[C@@H]2Cn3cc(C(=O)NCc4ccc(F)cc4F)c(=O)c(O)c3C(=O)N12 = > 100 nM
• O=C(NCc1ccc(F)cc1F)c1cn2c(c(O)c1=O)C(=O)N1[C@@H](C3CC3)CO[C@@H]1C2 = > 100 nM
• O=C(NCc1ccc(F)cc1F)c1cn2c(c(O)c1=O)C(=O)N1[C@@H](CF)CO[C@@H]1C2 = > 100 nM

====

system: HIV-1 integrase R263K pseudovirus; assay: Pseudovirus-based assay of anti-HIV-1 activity, R263K strain; assay type: cell-based; conditions: HEK-293T, 72 h
Catalogue of compounds with associated EC90
parameter: EC90 (nM)

• O=C(NCc1ccc(F)cc1F)c1cn2c(c(O)c1=O)C(=O)N1[C@@H](CF)CO[C@@H]1C2 = 25.1
• C[C@H]1CO[C@@H]2Cn3cc(C(=O)NCc4ccc(F)cc4F)c(=O)c(O)c3C(=O)N12 = 58.8
• Cc1nnc(C(=O)NC(C)(C)c2nc(C(=O)NCc3ccc(F)cc3)c(O)c(=O)n2C)o1 = 68
• O=C(NCc1ccc(F)cc1F)c1cn2c(c(O)c1=O)C(=O)N1[C@@H](C3CC3)CO[C@@H]1C2 = 58.3

====

test system: WT (wild type) pseudovirus; experiment: Pseudovirus-based assay of anti-HIV-1 activity, WT strain; assay type: cell-based; conditions: HEK-293T, 72 h
parameter: EC90 (µM)

- O=C(NCc1ccc(F)cc1F)c1cn2c(c(O)c1=O)C(=O)N1[C@@H](CF)CO[C@@H]1C2 [Compound 2]: 0.0129
- C[C@H]1CO[C@@H]2Cn3cc(C(=O)NCc4ccc(F)cc4F)c(=O)c(O)c3C(=O)N12 [Cabotegravir, cabotegravir]: 0.0218
- O=C(NCc1ccc(F)cc1F)c1cn2c(c(O)c1=O)C(=O)N1[C@@H](C3CC3)CO[C@@H]1C2 [Compound 1]: 0.0291
- Cc1nnc(C(=O)NC(C)(C)c2nc(C(=O)NCc3ccc(F)cc3)c(O)c(=O)n2C)o1 [Raltegravir, raltegravir]: 0.0607

====

system: WT (wild type) pseudovirus; assay: Pseudovirus-based assay of anti-HIV-1 activity, WT strain; format: cell-based; conditions: HEK-293T, 72 h
pEC50: −log10 of the molar value.
Catalogue of compounds with associated pEC50
parameter: pEC50

* Cc1nnc(C(=O)NC(C)(C)c2nc(C(=O)NCc3ccc(F)cc3)c(O)c(=O)n2C)o1 | 8.26
* O=C(NCc1ccc(F)cc1F)c1cn2c(c(O)c1=O)C(=O)N1[C@@H](C3CC3)CO[C@@H]1C2 | 8.48
* O=C(NCc1ccc(F)cc1F)c1cn2c(c(O)c1=O)C(=O)N1[C@@H](CF)CO[C@@H]1C2 | 8.74
* C[C@H]1CO[C@@H]2Cn3cc(C(=O)NCc4ccc(F)cc4F)c(=O)c(O)c3C(=O)N12 | 8.52

====

Catalogue of molecules with associated CC50/EC50
system: human immunodeficiency virus type 1 IIIB strain (HIV-1IIIB); experiment: Cell protection assay against HIV infection (MT-4 cells, XTT); format: cell-based; conditions: MT-4 cells, HIV-1IIIB
parameter: CC50/EC50

• O=C(NCc1ccc(F)cc1F)c1cn2c(c(O)c1=O)C(=O)N1[C@@H](CF)CO[C@@H]1C2 = >112
• O=C(NCc1ccc(F)cc1F)c1cn2c(c(O)c1=O)C(=O)N1[C@@H](C3CC3)CO[C@@H]1C2 = >32.1
• Cc1cn([C@H]2C[C@H](N=[N+]=[N-])[C@@H](CO)O2)c(=O)[nH]c1=O = >250
• C[C@H]1CO[C@@H]2Cn3cc(C(=O)NCc4ccc(F)cc4F)c(=O)c(O)c3C(=O)N12 = >41.7

====

tested on: HIV-1 subtype D UG/92/001; experiment: Inhibitory activity against clinical HIV-1 strain UG/92/001 in PBMC; assay type: cell-based; conditions: Human immunodeficiency virus 1, PBMC, 168 h, read-out: hPBMC/HIV-1 EC50
pEC50: −log10 of the molar value.
parameter: pEC50

• O=C(NCc1ccc(F)cc1F)c1cn2c(c(O)c1=O)C(=O)N1[C@@H](CF)CO[C@@H]1C2 = 9.55

====

system: HIV-1 integrase Q148H pseudovirus; test: Pseudovirus-based assay of anti-HIV-1 activity, Q148H strain; format: cell-based; conditions: HEK-293T, 72 h
Catalogue of molecules with associated EC50
parameter: EC50

* O=C(NCc1ccc(F)cc1F)c1cn2c(c(O)c1=O)C(=O)N1[C@@H](CF)CO[C@@H]1C2 [Compound 2] | 2.2 nM
* C[C@H]1CO[C@@H]2Cn3cc(C(=O)NCc4ccc(F)cc4F)c(=O)c(O)c3C(=O)N12 [Cabotegravir, cabotegravir] | 3.6 nM
* O=C(NCc1ccc(F)cc1F)c1cn2c(c(O)c1=O)C(=O)N1[C@@H](C3CC3)CO[C@@H]1C2 [Compound 1] | 15.9 nM
* Cc1nnc(C(=O)NC(C)(C)c2nc(C(=O)NCc3ccc(F)cc3)c(O)c(=O)n2C)o1 [Raltegravir, raltegravir] | 214 nM

Hello, the source for this data is patent US20250188091A1, in case you need it.
